For each of the compounds below, state its pIC50.
System: KB
Test: Cytotoxicity against human KB cell line by clonogenic plating efficiency assay after 72 hrs
Assay type: functional, cell-based
Numbers only, as −log10 of the molar value.

Completed entries (count: 2):
| compound | readout_number |
| --- | --- |
| COc1cc2cc(c1Cl)N(C)C(=O)CC(OC(=O)[C@H](C)N(C)C(=O)CSSC)C1(C)OC1C(C)C1CC(O)(NC(=O)O1)C(OC)/C=C/C=C(\C)C2 (some centres undefined) | 9.72 |
| COc1cc2cc(c1Cl)N(C)C(=O)CC(OC(=O)[C@H](C)N(C)C(=O)CCSSCCC(=O)N(C)[C@@H](C)C(=O)OC1CC(=O)N(C)c3cc(cc(OC)c3Cl)C/C(C)=C/C=C/C(OC)C3(O)CC(OC(=O)N3)C(C)C3OC13C)C1(C)OC1C(C)C1CC(O)(NC(=O)O1)C(OC)/C=C/C=C(\C)C2 (some centres undefined) | 9.85 |

Kindly give each listed record's pIC50.
1. COc1cc2cc(c1Cl)N(C)C(=O)CC(OC(=O)[C@H](C)N(C)C(=O)CCC(C)(C)S)C1(C)OC1C(C)C1CC(O)(NC(=O)O1)C(OC)/C=C/C=C(\C)C2 (some centres undefined)
2. COc1cc2cc(c1Cl)N(C)C(=O)CC(OC(=O)[C@@H](C)N(C)C(=O)CCSSC)C1(C)OC1C(C)C1CC(O)(NC(=O)O1)C(OC)/C=C/C=C(\C)C2 (some centres undefined)
3. COc1cc2cc(c1Cl)N(C)C(=O)CC(OC(=O)[C@H](C)N(C)C(=O)CCC(C)SSC)C1(C)OC1C(C)C1CC(O)(NC(=O)O1)C(OC)/C=C/C=C(\C)C2 (mixture of isomers)
4. COc1cc2cc(c1Cl)N(C)C(=O)CC(OC(=O)[C@H](C)N(C)C(=O)CC[C@@H](C)SSC)C1(C)OC1C(C)C1CC(O)(NC(=O)O1)C(OC)/C=C/C=C(\C)C2 (some centres undefined)
5. COc1cc2cc(c1Cl)N(C)C(=O)CC(OC(=O)[C@H](C)N(C)C(=O)CCSSc1ccccc1)C1(C)OC1C(C)C1CC(O)(NC(=O)O1)C(OC)/C=C/C=C(\C)C2 (some centres undefined)
6. COc1cc2cc(c1Cl)N(C)C(=O)CC(OC(=O)[C@@H](C)N(C)C(=O)CC[C@@H](C)SSC)C1(C)OC1C(C)C1CC(O)(NC(=O)O1)C(OC)/C=C/C=C(\C)C2 (some centres undefined)
7. COc1cc2cc(c1Cl)N(C)C(=O)CC(OC(=O)[C@@H](C)N(C)C(=O)CCCSSC)C1(C)OC1C(C)C1CC(O)(NC(=O)O1)C(OC)/C=C/C=C(\C)C2 (some centres undefined)

1. 9.54
2. 8.52
3. 10.96
4. 10.38
5. 10.00
6. 8.62
7. 8.70

# batch size: 6; output pIC50 per entry
1. COc1cc2cc(c1Cl)N(C)C(=O)C[C@H](OC(=O)[C@H](C)N(C)C(C)=O)[C@]1(C)O[C@H]1[C@H](C)[C@@H]1C[C@@](O)(NC(=O)O1)[C@H](OC)/C=C/C=C(\C)C2
2. COc1cc2cc(c1Cl)N(C)C(=O)CC(OC(=O)[C@H](C)N(C)C(=O)CCCSSC)C1(C)OC1C(C)C1CC(O)(NC(=O)O1)C(OC)/C=C/C=C(\C)C2 (some centres undefined)
3. COc1cc2cc(c1Cl)N(C)C(=O)CC(OC(=O)[C@H](C)N(C)C(=O)CCC(C)(C)SSC(C)(C)CCC(=O)N(C)[C@@H](C)C(=O)OC1CC(=O)N(C)c3cc(cc(OC)c3Cl)C/C(C)=C/C=C/C(OC)C3(O)CC(OC(=O)N3)C(C)C3OC13C)C1(C)OC1C(C)C1CC(O)(NC(=O)O1)C(OC)/C=C/C=C(\C)C2 (some centres undefined)
4. COc1cc2cc(c1Cl)N(C)C(=O)CC(OC(=O)[C@H](C)N(C)C(=O)CCC(C)(C)SSCCCC(=O)O)C1(C)OC1C(C)C1CC(O)(NC(=O)O1)C(OC)/C=C/C=C(\C)C2 (some centres undefined)
5. COc1cc2cc(c1Cl)N(C)C(=O)CC(OC(=O)[C@H](C)N(C)C(=O)CC[C@H](C)SSC)C1(C)OC1C(C)C1CC(O)(NC(=O)O1)C(OC)/C=C/C=C(\C)C2 (some centres undefined)
6. COc1cc2cc(c1Cl)N(C)C(=O)CC(OC(=O)[C@H](C)N(C)C(=O)CCSSC)C1(C)OC1C(C)C1CC(O)(NC(=O)O1)C(OC)/C=C/C=C(\C)C2 (some centres undefined)

1. 10.47
2. 11.07
3. 11.80
4. 7.64
5. 10.40
6. 10.54
